B1: FAM46D (parent)
chain: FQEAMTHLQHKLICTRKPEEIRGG

- Variants of: B1
- Procedure Summary: protein stability index of a GFP-peptide fusion (GPS, HEK-293T) (PSI 1-6); higher = more stable;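 also: lentivirally expressed fusions sorted by FACS into six bins by GFP to DsRed ratio, PSI derived from sequencing read proportions per bin multiplied by bin number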
- Experimental Context: c terminus: a fixed tail appended
Provide the reported protein stability index of each item.

Example cases with answers are listed next.
{"columns": ["Mutant Code", "protein stability index"],
 "data": [
  ["H7M", 1.11],
  ["E20D", 2.69],
  ["G23Q", 2.34],
  ["G24C", 2.52],
  ["G23D", 3.08]
]}

Please state protein stability index for every variant in the list that follows.
1. T15W
2. T15A
3. C14Q
4. K17W
5. L8I
6. M5R

[2.31, 3.06, 2.51, 2.03, 2.88, 3.13]

Please state protein stability index for every variant in the list that follows.
1. K17E
2. E20N

1. 3.03
2. 2.64

Values compiled from the supplement of paper PMC10567573.
